# measurement_notes: folding stability dG unfold from trypsin proteolysis; higher = more stable
recorded_metric: folding stability dG unfold (kJ/mol)
Enter your answer as a number in kJ/mol; do not include the unit.

Study these solved cases before continuing.
| sequence_content | unit_spec | assay_value |
| --- | --- | --- |
| SLTAEEAAANPELAARLLALPPVPPFPVELLFVNPETRAVLPAKATVYQFPNTWLVLFPENGAALPVPGGSA [r9_548_TrMRF] | kJ/mol | 2.97 |
| SAGGGSSSTTLTLREVTEVIVIPVPPEEEELAEELAKKYESQGIKVELERLPDGTWKLTLTYYRGVSLSAGG [r13_702_JUSTAS] | kJ/mol | 4.82 |
| SAGGTMTIEAWVKYKDMTPEEMREQAKEIAENIMNMMRQRGFPIKKIEVDVEQDPGNGWVQVTIEIEFSAGG [r13_212_TrROS] | kJ/mol | 14.4 |
| SKVIYVPPGATVEEILAAIKANKGKTVTIVMSREELERLKKALEEAGYEVEEVKVFEEEPYVVVKIKVKPSA [r9_1138_TrROS_Hall] | kJ/mol | 16.7 |
| SAGRIEIDKIEPGKPVRIKIKIEMPDPNGKKRKMDFTRRVRVDPENGMIYIPITMPNGRPIPIMINVKKSAG [r5_743_TrROS] | kJ/mol | 1.31 |
| SAGGTLEEFARDLAKELAKENGGKNVPFEIEIPVKMEWYPSPDGDPEPIMTHPMRIRIQFQIPPGQPSAGGS [r16_156_TrROS] | kJ/mol | 1.63 |
| EMTVTVKIEIEKTPDSIKIKITVEVNGKKIEEVEITYDKKTKKIYIKVKVKSKEDLDELKKLLEKLGFKVES [r1_455_TrROS_Hall] | kJ/mol | 16 |
| SAGGKITAFVLVELPDGSVVERTYEFERLDDLLAFLEADPGPKLADLEIIPPEGSDDIIIPLVARVEPSAGG [r13_796_TrMRF] | kJ/mol | 3.69 |
| SAGMMLIEVEKNGEPVEVAEVKDDEITITLPKEKVRIRIVNADTGEEVEAEATVEDGTITIKLPPGVKLSAG [r5_469_TrROS_Hall] | kJ/mol | 2.8 |
| SAGGLDAVLAELAKKPPGVTVELPVELPDGSRVVLTATWPAETSSPVITVKYYDPNRPEAVEEETFTVTSAG [r5_35_JUSTAS] | kJ/mol | 5.62 |

In: // query folding stability dG unfold value for entry SAGGSAGGSNTITVFMKVDDPEDALDEISEEIRDLFPPGIEVEIQPEQNEDKRGWVQVTIEFKSAGGSAGGS [r20_122_TrROS]
Out: 4.36

In: // query folding stability dG unfold value for entry SAGGSAGGKETKTITMIIKVKDENGKELKAGDKVEIEINGKKITIEVTYNKKTGYLVVKATIKPSAGGSAGG [r6_657_TrROS_Hall]
Out: 10.3

In: // query folding stability dG unfold value for entry SAGGSAGGSAGGSPNWKWVEMEITFNVPPGAKITIPNGIKLTVPPGDPVTIKIYIAVPPSAGGSAGGSAGGS [r4_232_TrROS]
Out: 8.12

In: // query folding stability dG unfold value for entry SKKKIEIEVIDLKTGKTETIEADTLEEALEEIKKNAPPGSTVIVRIKLPDGSVLEITLEIKPEKVTEKEKSA [r9_482_TrROS_Hall]
Out: 4

In: // query folding stability dG unfold value for entry SAGGSAGGSDRYLAVVFVRRADDPTPEVRTFTGIRTLADVERAVADALPADVAEVRIVVFPVRSAGGSAGGS [r20_29_TrMRF]
Out: 6.63

In: // query folding stability dG unfold value for entry SAGGSLVTELIENNPEFQALLESGTTLKVTFPGGLSGEIEVKNKSPEEIEKAILARNPGPVEIEITGSAGGS [r16_655_JUSTAS]
Out: 1.61

In: // query folding stability dG unfold value for entry SAGGSAKKKKKKKKKKKKKKEKKEVVIVIKAKSKEEAEKAVKKLLEELQKKYNIPLPKNVKVIILPSAGGSA [r15_496_TrROS_Hall]
Out: 13.9

In: // query folding stability dG unfold value for entry SAGGSAKVIMFPSLEEALDLAKEAMGHGKPIQIFLPDGYMIEIEVKPDPDGKPKIDIKWRKLPPDDSAGGSA [r15_761_TrROS]
Out: 8.47

In: // query folding stability dG unfold value for entry SAGGSAGGSAGGMNIKVLKEFEFETEDGVPVRYLLVDAGGEEGETVVIKETPTSIEIIPFSAGGSAGGSAGG [r7_960_TrMRF]
Out: 3.58

In: // query folding stability dG unfold value for entry SMRVTIMIPVPPGLKNLKLEFKLPYPDGREVDVDIQVDPNYITITVEMNNPGQMDWVQERFQEEIEKLLGSA [r9_790_TrROS]
Out: 13.6

In: // query folding stability dG unfold value for entry SAGNPDYIPIPFRVWIMRRVPPGMSKEQAKKNPDMYVMVPIPVKFYIDPDTGRIRVENPDGKTIEFPLPSAG [r5_701_TrROS]
Out: 8.84

In: // query folding stability dG unfold value for entry SAGGSAGGSSPVPVKVSANSVEPGESSSSNINIPKEALEKDSLTPEELKKILQKQGPNVTITGSAGGSAGGS [r20_221_JUSTAS]
Out: -1.77

In: // query folding stability dG unfold value for entry KETVTLEFELEDGSKVRVEVDLETKEVKVEVEKPPAPPPPPVIVLPPGLTEEERERLIKELEKKGIKVVVLS [r1_242_TrROS_Hall]
Out: 9.4

In: // query folding stability dG unfold value for entry SAGGSAGGSDPDLDIPPAPLEEIYIPGTGRLLVLYEPTGLVAAYPPSGSFEIGVYDPETGKISSAGGSAGGS [r12_420_TrMRF]
Out: -0.0997

In: // query folding stability dG unfold value for entry SAGGSAGGSAGGHYIRAEIEIKYEHPGNGQEQTMTIPIEIPIPPPPPVSAEDRAKQNGIGSAGGSAGGSAGG [r7_79_TrROS]
Out: 1.33

In: // query folding stability dG unfold value for entry SAGGKVVTVEVELENGVRVTVEFVEEDGYLALKVTVEVRLPAPPVTTADGREKEVTRRLELVILLPKESAGG [r13_780_TrROS_Hall]
Out: 11.4

In: // query folding stability dG unfold value for entry SAGGSAGGSMTVTVRRVYFPPNLAEGMTVEELRKKLGVPDLPVLVVDVEVTLTPEELEALLKESAGGSAGGS [r12_178_TrMRF]
Out: 5.81
